Tested on: Influenza A virus (A/Puerto Rico/8/1934(H1N1))
Experiment description: Antiviral activity against Influenza A virus (A/Puerto Rico/8/34(H1N1)) PR/8 infected in MDCK cells assessed as protection against virus-induced cytopathogenicity after 48 hrs by crystal-violet staining-based assay
Type: functional, organism-based
Condition summary: PR/8, MDCK
Property: pIC50
By convention, pIC50 is the negative base-10 log of a molar concentration.

**Query** Specify reported pIC50 for the compound shown: CC(C)(O)[C@@H]1CC[C@]2(C)[C@H](CC[C@@]3(C)[C@H]2CC[C@H]2Cc4c([nH]c5ccccc45)[C@@]23C)O1
**Result** 4.11

**Query** Specify reported pIC50 for the compound shown: CC(C)=CCC[C@](C)(O)[C@H](O)CC/C(C)=C/CC/C(C)=C/Cc1c[nH]c2ccccc12
**Result** 4.47

**Query** Specify reported pIC50 for the compound shown: CC(C)=CCc1ccc2[nH]c3c(c2c1)C[C@@H]1CC[C@@]2(O)C4=CC(=O)[C@@H](C(C)(C)O)O[C@H]4CC[C@]2(C)[C@@]31C
**Result** 5.18

**Query** Specify reported pIC50 for the compound shown: CC(C)(O)[C@@H]1CC[C@]2(C(=O)O)[C@H](CC[C@@]3(C)[C@H]2CC[C@H]2Cc4c([nH]c5ccccc45)[C@@]23C)O1
**Result** 4.41

**Query** Specify reported pIC50 for the compound shown: CC(C)(O)[C@H]1O[C@H]2CC[C@@]3(C)[C@@](O)(CC[C@H]4Cc5c([nH]c6ccccc56)[C@@]43C)C2=CC1=O
**Result** 4.75

* * *

System: Influenza A virus (A/Puerto Rico/8/1934(H1N1))
Experiment description: Antiviral activity against Influenza A virus (A/Puerto Rico/8/34(H1N1)) PR/8 infected in MDCK cells assessed as protection against virus-induced cytopathogenicity after 48 hrs by crystal-violet staining-based assay
Format: functional, organism-based
Condition summary: PR/8, MDCK
Assign IC50 to each entry below.
Note: unit µM is implicit; provide only the numeric part.

**Query** Specify reported IC50 for the compound shown: NC(=O)c1ncn([C@@H]2O[C@H](CO)[C@@H](O)[C@H]2O)n1
**Result** 113

**Query** Specify reported IC50 for the compound shown: CC(C)=CCc1cc2[nH]c3c(c2cc1CC=C(C)C)C[C@@H]1CC[C@@]2(O)C4=CC(=O)[C@@H](C(C)(C)O)O[C@H]4CC[C@]2(C)[C@@]31C
**Result** 73.3

**Query** Specify reported IC50 for the compound shown: CC(C)(O)[C@@H]1CC=C2[C@H](CC[C@@]3(C)[C@H]2CC[C@H]2Cc4c([nH]c5ccccc45)[C@@]23C)O1
**Result** 28.3

**Query** Specify reported IC50 for the compound shown: CC(C)=CCC[C@]1(C)[C@@H](O)CC[C@@]2(C)[C@H]1CC[C@H]1Cc3c([nH]c4ccccc34)[C@@]12C
**Result** 26.2

**Query** Specify reported IC50 for the compound shown: CC(O)(CO)[C@H]1O[C@H]2CC[C@@]3(C)[C@@](O)(CC[C@H]4Cc5c([nH]c6ccccc56)[C@@]43C)C2=CC1=O (stereo partly specified)
**Result** 125

**Query** Specify reported IC50 for the compound shown: CC(C)(O)[C@H]1O[C@H]2CC[C@@]3(C)[C@@H](CC[C@H]4Cc5c([nH]c6ccccc56)[C@@]43C)[C@]2(O)[C@H](O)[C@H]1O
**Result** 32.2
